- tested target: 5-hydroxytryptamine receptor 2C (Rattus norvegicus, UniProt P08909)
- Sequence (P08909 whole entry): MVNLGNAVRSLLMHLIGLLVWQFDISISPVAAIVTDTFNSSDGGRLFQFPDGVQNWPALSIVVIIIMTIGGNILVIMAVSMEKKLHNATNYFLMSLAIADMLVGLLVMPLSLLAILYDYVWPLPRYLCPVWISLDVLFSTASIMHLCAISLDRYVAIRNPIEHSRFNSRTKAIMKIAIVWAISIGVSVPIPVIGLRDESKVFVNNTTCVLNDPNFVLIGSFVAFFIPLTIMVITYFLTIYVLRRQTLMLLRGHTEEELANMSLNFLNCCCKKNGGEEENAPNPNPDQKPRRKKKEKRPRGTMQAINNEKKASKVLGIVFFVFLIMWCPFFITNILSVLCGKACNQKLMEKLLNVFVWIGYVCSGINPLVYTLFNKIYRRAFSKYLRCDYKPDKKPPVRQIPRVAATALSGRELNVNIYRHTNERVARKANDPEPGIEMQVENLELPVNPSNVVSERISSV
// merged dataset of Ki values, system = 5-hydroxytryptamine receptor 2C (Rattus norvegicus, UniProt P08909), multiple refs
State the answer as a number, implicitly in µM.

[in] Requested read-out: Ki. Entry: CN1CCN(C2=Nc3cc(F)ccc3Cc3ccccc32)CC1
[out] 0.0182

[in] Fill in the blank: the reported Ki of CN1CCc2cc(Cl)c(O)cc2C(c2ccccc2C(=O)C2=CC=C[C@@H]2[Re]([CH]=O)([CH]=O)[CH]=O)C1 (some centres undefined) is ____.
[out] 0.029

[in] Which Ki value is on record for CC1CCN(CCCC(=O)c2ccc(F)cc2)CC1 ?
[out] 1.26
